Below, each entry is listed alongside its reported MIC.
Test system: Streptococcus pyogenes C203
Experiment: broth micro-dilution MIC
Assay type: cell-based
readout_kind: MIC

molecule	target_or_system	readout_kind	assay_value
CNC(CC(C)C)C(=O)NC1C(=O)NC(CC(N)=O)C(=O)NC2C(=O)NC3C(=O)NC(C(=O)NC(C(=O)O)c4cc(O)cc(O)c4-c4cc3ccc4O)C(OC3CC(C)(NCc4ccc5c(c4)Cc4ccccc4-5)C(O)C(C)O3)c3ccc(c(Cl)c3)Oc3cc2cc(c3OC2OC(CO)C(O)C(O)C2OC2CC(C)(NCc3ccc4c(c3)Cc3ccccc3-4)C(O)C(C)O2)Oc2ccc(cc2Cl)C1O (centres unmarked)	Streptococcus pyogenes C203	MIC	≤ 0.06 µg/mL
CNC(CC(C)C)C(=O)NC1C(=O)NC(CC(N)=O)C(=O)NC2C(=O)NC3C(=O)NC(C(=O)NC(C(=O)O)c4cc(O)cc(O)c4-c4cc3ccc4O)C(OC3CC(C)(N)C(O)C(C)O3)c3ccc(c(Cl)c3)Oc3cc2cc(c3OC2OC(CO)C(O)C(O)C2OC2CC(C)(NCc3ccc(-c4ccc(C)cc4)c(C)c3)C(O)C(C)O2)Oc2ccc(cc2Cl)C1O (centres unmarked)	Streptococcus pyogenes C203	MIC	≤ 0.06 µg/mL

---

System: Streptococcus pyogenes
Assay: mouse protection, experimentally-induced infection
Format: in vivo
Conditions: mice infected with Streptococcus pyogenes, two doses
Recorded measurements of log10 ED50, one per entry
readout_kind: log10 ED50 (log10 of the value in mg/kg/2)

compound	target_or_system	log10 ED50
CNC(CC(C)C)C(=O)NC1C(=O)NC(CC(N)=O)C(=O)NC2C(=O)NC3C(=O)NC(C(=O)NC(C(=O)O)c4cc(O)cc(O)c4-c4cc3ccc4O)C(OC3CC(C)(N)C(O)C(C)O3)c3ccc(c(Cl)c3)Oc3cc2cc(c3OC2OC(CO)C(O)C(O)C2OC2CC(C)(NCc3ccc(-c4ccc(-c5ccccc5)cc4)cc3)C(O)C(C)O2)Oc2ccc(cc2Cl)C1O (stereo not shown)	Streptococcus pyogenes	-0.55
CNC(CC(C)C)C(=O)NC1C(=O)NC(CC(N)=O)C(=O)NC2C(=O)NC3C(=O)NC(C(=O)NC(C(=O)O)c4cc(O)cc(O)c4-c4cc3ccc4O)C(OC3CC(C)(N)C(O)C(C)O3)c3ccc(c(Cl)c3)Oc3cc2cc(c3OC2OC(CO)C(O)C(O)C2OC2CC(C)(NCc3cccc(Oc4cccc(C(F)(F)F)c4)c3)C(O)C(C)O2)Oc2ccc(cc2Cl)C1O (stereo not shown)	Streptococcus pyogenes	-1.00
CN[C@H](CC(C)C)C(=O)N[C@H]1C(=O)N[C@@H](CC(N)=O)C(=O)N[C@H]2C(=O)N[C@H]3C(=O)N[C@H](C(=O)N[C@H](C(=O)O)c4cc(O)cc(O)c4-c4cc3ccc4O)[C@H](O)c3ccc(c(Cl)c3)Oc3cc2cc(c3O[C@@H]2O[C@H](CO)[C@@H](O)[C@H](O)[C@H]2O[C@H]2C[C@](C)(N)[C@H](O)[C@H](C)O2)Oc2ccc(cc2Cl)[C@H]1O [vancomycin, reference compound]	Streptococcus pyogenes	-0.10
CNC(CC(C)C)C(=O)NC1C(=O)NC(CC(N)=O)C(=O)NC2C(=O)NC3C(=O)NC(C(=O)NC(C(=O)O)c4cc(O)cc(O)c4-c4cc3ccc4O)C(OC3CC(C)(N)C(O)C(C)O3)c3ccc(c(Cl)c3)Oc3cc2cc(c3OC2OC(CO)C(O)C(O)C2OC2CC(C)(NCc3ccc(C(c4ccccc4)c4ccccc4)cc3)C(O)C(C)O2)Oc2ccc(cc2Cl)C1O (stereo not shown)	Streptococcus pyogenes	-0.42
CN[C@H](CC(C)C)C(=O)N[C@H]1C(=O)N[C@@H](CC(N)=O)C(=O)N[C@H]2C(=O)N[C@H]3C(=O)N[C@H](C(=O)N[C@H](C(=O)O)c4cc(O)cc(O)c4-c4cc3ccc4O)[C@H](O[C@H]3C[C@](C)(N)[C@@H](O)[C@H](C)O3)c3ccc(c(Cl)c3)Oc3cc2cc(c3O[C@@H]2O[C@H](CO)[C@@H](O)[C@H](O)[C@H]2O[C@H]2C[C@](C)(NCc3ccc(OCc4ccc(Cl)cc4)cc3)[C@@H](O)[C@H](C)O2)Oc2ccc(cc2Cl)[C@H]1O	Streptococcus pyogenes	-1.13
CNC(CC(C)C)C(=O)NC1C(=O)NC(CC(N)=O)C(=O)NC2C(=O)NC3C(=O)NC(C(=O)NC(C(=O)O)c4cc(O)cc(O)c4-c4cc3ccc4O)C(OC3CC(C)(N)C(O)C(C)O3)c3ccc(c(Cl)c3)Oc3cc2cc(c3OC2OC(CO)C(O)C(O)C2OC2CC(C)(NCc3ccc(Sc4ccccc4)cc3)C(O)C(C)O2)Oc2ccc(cc2Cl)C1O (stereo not shown)	Streptococcus pyogenes	-1.34
CNC(CC(C)C)C(=O)NC1C(=O)NC(CC(N)=O)C(=O)NC2C(=O)NC3C(=O)NC(C(=O)NC(C(=O)O)c4cc(O)cc(O)c4-c4cc3ccc4O)C(OC3CC(C)(N)C(O)C(C)O3)c3ccc(c(Cl)c3)Oc3cc2cc(c3OC2OC(CO)C(O)C(O)C2OC2CC(C)(NCc3ccc(OC4CCCCC4)cc3)C(O)C(C)O2)Oc2ccc(cc2Cl)C1O (stereo not shown)	Streptococcus pyogenes	-1.04
CNC(CC(C)C)C(=O)NC1C(=O)NC(CC(N)=O)C(=O)NC2C(=O)NC3C(=O)NC(C(=O)NC(C(=O)O)c4cc(O)cc(O)c4-c4cc3ccc4O)C(OC3CC(C)(N)C(O)C(C)O3)c3ccc(c(Cl)c3)Oc3cc2cc(c3OC2OC(CO)C(O)C(O)C2OC2CC(C)(NCc3ccc(OC(F)(F)F)cc3)C(O)C(C)O2)Oc2ccc(cc2Cl)C1O (stereo not shown)	Streptococcus pyogenes	-1.89

---

System: Staphylococcus aureus S13E
Format: cell-based
readout_kind: MIC

compound	readout_kind	assay_value
CNC(CC(C)C)C(=O)NC1C(=O)NC(CC(N)=O)C(=O)NC2C(=O)NC3C(=O)NC(C(=O)NC(C(=O)O)c4cc(O)cc(O)c4-c4cc3ccc4O)C(OC3CC(C)(N)C(O)C(C)O3)c3ccc(c(Cl)c3)Oc3cc2cc(c3OC2OC(CO)C(O)C(O)C2OC2CC(C)(NCCCCCCCCCCc3ccccc3)C(O)C(C)O2)Oc2ccc(cc2Cl)C1O (stereo not drawn)	MIC	2 µg/mL
CN[C@H](CC(C)C)C(=O)N[C@H]1C(=O)N[C@@H](CC(N)=O)C(=O)N[C@H]2C(=O)N[C@H]3C(=O)N[C@H](C(=O)N[C@H](C(=O)O)c4cc(O)cc(O)c4-c4cc3ccc4O)[C@H](O[C@H]3C[C@](C)(N)[C@@H](O)[C@H](C)O3)c3ccc(c(Cl)c3)Oc3cc2cc(c3O[C@@H]2O[C@H](CO)[C@@H](O)[C@H](O)[C@H]2O[C@H]2C[C@](C)(N)[C@@H](O)[C@H](C)O2)Oc2ccc(cc2Cl)[C@H]1O [Compound A82846B, A82846B, reference compound]	MIC	0.125 µg/mL
CNC(CC(C)C)C(=O)NC1C(=O)NC(CC(N)=O)C(=O)NC2C(=O)NC3C(=O)NC(C(=O)NC(C(=O)O)c4cc(O)cc(O)c4-c4cc3ccc4O)C(OC3CC(C)(N)C(O)C(C)O3)c3ccc(c(Cl)c3)Oc3cc2cc(c3OC2OC(CO)C(O)C(O)C2OC2CC(C)(NCc3ccc(I)s3)C(O)C(C)O2)Oc2ccc(cc2Cl)C1O (stereo not drawn)	MIC	0 µg/mL

---

Tested on: vancomycin-resistant enterococci
Experiment: broth micro-dilution, mean geometric MIC
Assay type: cell-based, Enterococcus faecium and Enterococcus faecalis
Details: enterococci, 24-hour incubation
readout_kind: mean geometric MIC, Vancomycin Resistant Strains (µg/mL)

compound	target_or_system	readout_unit	assay_value
CNC(CC(C)C)C(=O)NC1C(=O)NC(CC(N)=O)C(=O)NC2C(=O)NC3C(=O)NC(C(=O)NC(C(=O)O)c4cc(O)cc(O)c4-c4cc3ccc4O)C(OC3CC(C)(N)C(O)C(C)O3)c3ccc(c(Cl)c3)Oc3cc2cc(c3OC2OC(CO)C(O)C(O)C2OC2CC(C)(NCc3ccc(-c4ccccc4)cc3)C(O)C(C)O2)Oc2ccc(cc2)C1O (stereo not drawn)	vancomycin-resistant enterococci	µg/mL	4.7
CC(C)CC(C(=O)NC1C(=O)NC(CC(N)=O)C(=O)NC2C(=O)NC3C(=O)NC(C(=O)NC(C(=O)O)c4cc(O)cc(O)c4-c4cc3ccc4O)C(OC3CC(C)(N)C(O)C(C)O3)c3ccc(c(Cl)c3)Oc3cc2cc(c3OC2OC(CO)C(O)C(O)C2OC2CC(C)(NCc3ccc4ccccc4n3)C(O)C(C)O2)Oc2ccc(cc2Cl)C1O)N(C)Cc1ccc2ccccc2n1 (stereo not drawn)	vancomycin-resistant enterococci	µg/mL	90
CNC(CC(C)C)C(=O)NC1C(=O)NC(CC(N)=O)C(=O)NC2C(=O)NC3C(=O)NC(C(=O)NC(C(=O)O)c4cc(O)cc(O)c4-c4cc3ccc4O)C(OC3CC(C)(N)C(O)C(C)O3)c3ccc(c(Cl)c3)Oc3cc2cc(c3OC2OC(CO)C(O)C(O)C2OC2CC(C)(NCCCCC3CCCCC3)C(O)C(C)O2)Oc2ccc(cc2Cl)C1O (stereo not drawn)	vancomycin-resistant enterococci	µg/mL	1
